Tested on: SF-295 CNS
Test: NCI-60 one-dose screen, 48 h (100 = growth as untreated, 0 = no growth, -100 = all killed)
Conditions: 10 µM unless noted
The panel holds about 83,000 compounds, 20% with a hit somewhere; the sample as a whole holds those more often.
Mark 1.0 only for growth values smaller than 80%; exact matches and larger values are 0.0.

>>> print(df.to_string())
                                   molecule      system  assigned_category
0    Cc1cccc(/C=C/c2nn3c(-c4ccco4)nnc3s2)c1  SF-295 CNS                0.0
1  COc1ccc(/C=C2\SC(=Nc3cc(C)[nH]n3)NC2=O)cc1  SF-295 CNS                0.0
2    CN(C)CCCNc1c2ccc(Cl)cc2nc2c1oc1ccccc12  SF-295 CNS                1.0
3  COc1cc2nc(-c3ccc(C)cc3)cc(OCCCNCC3CCCO3)c2cc1OC (stereo not given)  SF-295 CNS                1.0
4  CC(=O)Nc1cc(F)cc(-c2ccc3[nH]cc(-c4ccccc4)c3n2)c1  SF-295 CNS                1.0

q: Is growth of "COC(=O)C1CN(S(=O)(=O)/N=C2\NC(=O)NC2=C(Cl)Cl)C1" strictly below 80%?
a: 0.0

q: Do the same for "CC(=O)Oc1ccccc1C(=O)Nc1ccc(C(=O)/C=C/c2cccs2)cc1" please
a: 0.0

q: // repeat for "CN(C)c1ccc(/C=C2\Cc3c(F)ccc(Br)c3C2=O)cc1" and report
a: 0.0

q: Now the molecule "Cn1ccnc1C(=O)/C=C/c1ccc(NC(=O)Nc2ccc(Cl)cc2)cc1"
a: 0.0

Hello, the source for this data is PubChem BioAssay (NCI), in case you need it.
